Reference source: patent US9115083B2

biological target: HCV NS3/4A protease (Hepatitis C virus genotype 1a (isolate H77) (HCV)); assay: HCV protease assay (fluorimetric, FRET substrate); type: biochemical; details: HCV NS3/4A protease, 30 min at 37° C., triplicate; read-out: IC50 against HCV protease
Sequence (P27958 1027-1657): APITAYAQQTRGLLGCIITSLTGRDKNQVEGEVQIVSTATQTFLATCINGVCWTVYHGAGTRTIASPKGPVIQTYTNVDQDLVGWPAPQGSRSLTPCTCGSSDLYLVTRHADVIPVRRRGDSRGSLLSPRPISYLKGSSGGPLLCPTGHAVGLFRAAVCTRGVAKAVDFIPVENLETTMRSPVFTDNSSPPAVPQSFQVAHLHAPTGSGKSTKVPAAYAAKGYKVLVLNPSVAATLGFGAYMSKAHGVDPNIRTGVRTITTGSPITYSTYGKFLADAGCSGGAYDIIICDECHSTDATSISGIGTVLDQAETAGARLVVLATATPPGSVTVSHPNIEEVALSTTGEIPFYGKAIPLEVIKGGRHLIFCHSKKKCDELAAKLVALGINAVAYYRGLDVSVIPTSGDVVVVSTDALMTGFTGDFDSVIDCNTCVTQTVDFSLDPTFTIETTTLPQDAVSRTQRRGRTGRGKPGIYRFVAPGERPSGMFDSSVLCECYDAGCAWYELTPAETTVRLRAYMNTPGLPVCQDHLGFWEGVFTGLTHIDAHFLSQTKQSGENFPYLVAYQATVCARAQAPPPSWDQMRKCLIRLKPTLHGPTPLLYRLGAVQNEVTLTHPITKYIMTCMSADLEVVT
Sequence (P27958 1658-1711 partner): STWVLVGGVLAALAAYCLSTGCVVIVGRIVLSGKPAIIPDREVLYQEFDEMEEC
measured endpoint: pIC50
Schema: pIC50 number; meaning minus log10 of the concentration expressed in molar units.

*Q* Given the entry CC(C)CC1C(=O)N(C(CCOCO)C(=O)O)C(=O)C1c1ccc(O)cc1 (stereo not drawn) [Compound A17] , what pIC50 was observed with HCV NS3/4A protease (Hepatitis C virus genotype 1a (isolate H77) (HCV))?
*A* 3.98

*Q* Field: pIC50 (HCV NS3/4A protease (Hepatitis C virus genotype 1a (isolate H77) (HCV))). Entry: CC(C)CC1C(=O)N(CC(C(=O)C(=O)NC(Cc2ccccc2)C(=O)O)c2ccccc2)C(=O)C1c1ccc(O)cc1 (stereo not drawn) [KC-5]
*A* 5.05

*Q* Test system HCV NS3/4A protease (Hepatitis C virus genotype 1a (isolate H77) (HCV)); read-out pIC50; what value for CC(C)=CCOc1ccc(C2=C(CC(C)C)C(=O)N(C(C)C(=O)O)C2=O)cc1 (stereo not drawn) [Compound A8] ?
*A* 4.57

*Q* Checklist item: pIC50 tested on HCV NS3/4A protease (Hepatitis C virus genotype 1a (isolate H77) (HCV)), entry CC(C)CC1C(=O)N(CCC(=O)C(=O)NC(Cc2ccccc2)C(=O)O)C(=O)C1c1ccc(O)cc1 (stereo not drawn) [KB-2] , value?
*A* 4.00

# context switch: different compound, same pIC50
*Q* Record CC(C)=CCOc1ccc(C2=C(CC(C)C)C(=O)N(C(Cc3ccc(O)cc3)C(=O)O)C2=O)cc1 (stereo not drawn) [Compound A4] : what is its pIC50 with HCV NS3/4A protease (Hepatitis C virus genotype 1a (isolate H77) (HCV))?
*A* 4.80

###

target: dipeptidyl peptidase-IV (DPPIV) (Homo sapiens (Human), UniProt P27487); test: dipeptidyl peptidase-IV (DPPIV) assay; format: biochemical; conditions: Table 10, second scaffold; read-out: IC50 against DPPIV (converted)
Sequence (P27487 whole entry, species assumed): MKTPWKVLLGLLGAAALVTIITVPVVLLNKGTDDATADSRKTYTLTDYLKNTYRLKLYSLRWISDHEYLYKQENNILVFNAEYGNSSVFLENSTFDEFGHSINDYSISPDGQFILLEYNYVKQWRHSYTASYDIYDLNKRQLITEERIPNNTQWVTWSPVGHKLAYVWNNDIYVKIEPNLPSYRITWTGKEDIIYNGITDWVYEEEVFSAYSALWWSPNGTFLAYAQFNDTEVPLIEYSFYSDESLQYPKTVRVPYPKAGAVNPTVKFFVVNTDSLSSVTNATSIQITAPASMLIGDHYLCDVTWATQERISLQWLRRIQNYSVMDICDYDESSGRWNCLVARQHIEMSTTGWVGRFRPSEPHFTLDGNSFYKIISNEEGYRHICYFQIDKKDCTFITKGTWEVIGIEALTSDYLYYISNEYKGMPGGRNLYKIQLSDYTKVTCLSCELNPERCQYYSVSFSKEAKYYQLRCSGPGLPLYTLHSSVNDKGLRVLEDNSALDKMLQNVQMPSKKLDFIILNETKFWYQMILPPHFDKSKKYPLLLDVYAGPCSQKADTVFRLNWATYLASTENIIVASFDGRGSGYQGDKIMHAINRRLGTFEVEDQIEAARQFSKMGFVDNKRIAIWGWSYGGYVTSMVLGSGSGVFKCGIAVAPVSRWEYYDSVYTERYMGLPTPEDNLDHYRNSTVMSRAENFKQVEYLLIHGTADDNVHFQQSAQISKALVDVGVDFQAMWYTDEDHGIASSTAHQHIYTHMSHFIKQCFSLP
measured endpoint: IC50 (µM)
Provide the reading as a plain figure in µM.

*Q* Please state recorded IC50 (tested on dipeptidyl peptidase-IV (DPPIV) (Homo sapiens (Human), UniProt P27487)) of CC(C)CC1C(=O)N(C(CC(C)C)C(=O)O)C(=O)C1c1ccc(O)cc1 (stereo not drawn) [Compound A1-t]
*A* 75

---
*Q* Query for dipeptidyl peptidase-IV (DPPIV) (Homo sapiens (Human), UniProt P27487): what IC50 does the record show for CC(C)CC1C(=O)N(C(Cc2ccccc2)C(=O)O)C(=O)C1c1ccc(O)cc1 (stereo not drawn) [Compound A2-t] ?
*A* 90

*Q* Return IC50 measured with dipeptidyl peptidase-IV (DPPIV) (Homo sapiens (Human), UniProt P27487) given this molecule: CC(C)CC1C(=O)N(C(CO)C(=O)N2CCC[C@H]2C(=O)O)C(=O)C1c1ccc(O)cc1 (stereo partly drawn) [Compound A3-15]
*A* 85

*Q* What reported IC50 corresponds to CC(C)CC1C(=O)N(C(Cc2ccccc2)C(=O)N2CCC[C@H]2C(=O)O)C(=O)C1c1ccc(O)cc1 (stereo partly drawn) [Compound A2-14] on dipeptidyl peptidase-IV (DPPIV) (Homo sapiens (Human), UniProt P27487)?
*A* 60

*Q* dipeptidyl peptidase-IV (DPPIV) (Homo sapiens (Human), UniProt P27487) / IC50 / CC(C)CC1C(=O)N(C(CC(C)C)C(=O)N2CCC[C@H]2C(=O)O)C(=O)C1c1ccc(O)cc1 (stereo partly drawn) [Compound A1-9] : value?
*A* 29

*Q* // fetch dipeptidyl peptidase-IV (DPPIV) (Homo sapiens (Human), UniProt P27487) IC50 for CC(C)CC1C(=O)N(C(CO)C(=O)O)C(=O)C1c1ccc(O)cc1 (stereo not drawn) [Compound A3-t]
*A* 70
